Ref: PubChem BioAssay (NCI)

tested on: RPMI-8226 leukemia; experiment: NCI tumour cell line growth inhibition, 48 h
The following compounds are shown together with reported TGI values.
measure: TGI (µM)

1. CC[C@H](Nc1nc(N)nc(C)c1C#N)c1nc2cccc(NCc3ccc(C(=O)NO)cc3)c2c(=O)n1-c1ccccc1    9.78
2. O=C1c2ccccc2C(=O)c2c(NCCNCCO)ccc(O)c21    11.7
3. CCCCCC[C@H]1CC(=O)C2CCCC[C@@]23CC[C@H](CCl)N13 (some centres undefined) (tested in a mixture with another compound)    61.6
4. O=c1ssc(Cl)c1Nc1c(Cl)ssc1=O    29.9

----------
In this section we review reported TGI values for a set of compounds.
system: COLO 205 colon; assay: NCI tumour cell line growth inhibition, 48 h
Where a SMILES comes first, the peptide text is derived from it. The star is where a group is joined. Pentanoyl = CCCCC(=O)*; Boc = CC(C)(C)OC(=O)*
measure: TGI

1) Cc1ccc2nc(-c3ccc(-n4c(C)nc(=O)c(-c5ccc(F)cc5)c4C)cc3)sc2c1    20.5 µM
2) Cn1nnnc1N/N=C/c1ccccc1    > 10 µM
3) Cc1cccc2c(N)c3cccc(C(=O)NCC[N+](C)(C)Cc4sccc4[N+](=O)[O-])c3nc12    79.3 µM
4) Cc1ccc(S(=O)(=O)N/N=c2\c(C)c(C3=NS(=O)(=O)c4cc(S(N)(=O)=O)c(Cl)cc4N3)oc3c(Cl)cc(Cl)cc23)cc1    47.8 µM
5) OCC1OC(OCC(O)C(O)C(O)C(/C=N/Nc2ccccc2)=N/Nc2ccccc2)C(O)C(O)C1O (stereo not drawn)    > 100 µM
6) N#Cc1nc(COCc2ccccc2)oc1N    > 100 µM
7) CC(=O)c1c(C)n(C)c2c1nnc1ccccc12    > 100 µM
8) CCOC(=O)N(c1ccccc1)c1cc(=O)n2ccccc2n1    > 100 µM
9) O=C1C(Cl)=C(N2C(=O)CCCC2=O)C(=O)c2ccccc21    19.1 µM
10) CCCCCC(=O)Nc1nc[nH]c1C(N)=O    > 100 µM
11) C1=Nc2sc3c(c2C2=NCCN12)CCCC3    53.2 µM
12) O=c1c2ccccc2n2n1CC(O)C2 (stereo not drawn)    > 100 µM
13) O=C1C(c2c(O)[nH]c3ccc(S(=O)(=O)O)cc23)=Nc2ccc(Br)cc21    > 100 µM
14) COc1cc(=O)n2c3ccccc3n(C)c2c1C#N    > 100 µM
15) CCCCC(=O)Oc1ccc(CC(NC(=O)OC(C)(C)C)C(=O)NC(C)C(=O)NC(Cc2ccccc2)C(=O)NCC(N)=O)cc1 (stereo not drawn) (Boc-Y(Pentanoyl)AFG-NH2; configuration not given here)    37.6 µM
16) Oc1ccc(O)c(-c2cc(-c3ccccc3)nn2-c2ccccc2)c1    > 100 µM
17) O=c1oc2nc(-c3ccccc3)cc(C(F)(F)F)c2n1Cc1ccccc1    > 100 µM
18) COc1ccc2c3c(n(Cc4ccccc4)c(=O)c2c1)-c1cc(OC)c(OC)cc1C3C (stereo not drawn)    > 100 µM
